Below are compounds with their IC50 as measured on UniProt:P04150.
Attribute measured: IC50 (nM)

[A] Cc1noc(=O)c2ccc(NC(=O)C(O)(CC3CCCc4c(Br)cccc43)C(F)(F)F)cc12 (stereo in doubt; 23e)
[B] Cc1noc(=O)c2ccc(NC(=O)C(O)(CC3CCCc4c(Cl)cccc43)C(F)(F)F)cc12 (stereo in doubt; 20b)
[C] CCC1(CC(O)(C(=O)Nc2ccc3c(=O)onc(C)c3c2)C(F)(F)F)CCCCc2ccccc21 (centres undefined)
q: Quick favor: sort the compounds up above by IC50, largest first. Form field (ranking): labels in requested order.
a: A, C, B

* * *

Protein target, amino acids: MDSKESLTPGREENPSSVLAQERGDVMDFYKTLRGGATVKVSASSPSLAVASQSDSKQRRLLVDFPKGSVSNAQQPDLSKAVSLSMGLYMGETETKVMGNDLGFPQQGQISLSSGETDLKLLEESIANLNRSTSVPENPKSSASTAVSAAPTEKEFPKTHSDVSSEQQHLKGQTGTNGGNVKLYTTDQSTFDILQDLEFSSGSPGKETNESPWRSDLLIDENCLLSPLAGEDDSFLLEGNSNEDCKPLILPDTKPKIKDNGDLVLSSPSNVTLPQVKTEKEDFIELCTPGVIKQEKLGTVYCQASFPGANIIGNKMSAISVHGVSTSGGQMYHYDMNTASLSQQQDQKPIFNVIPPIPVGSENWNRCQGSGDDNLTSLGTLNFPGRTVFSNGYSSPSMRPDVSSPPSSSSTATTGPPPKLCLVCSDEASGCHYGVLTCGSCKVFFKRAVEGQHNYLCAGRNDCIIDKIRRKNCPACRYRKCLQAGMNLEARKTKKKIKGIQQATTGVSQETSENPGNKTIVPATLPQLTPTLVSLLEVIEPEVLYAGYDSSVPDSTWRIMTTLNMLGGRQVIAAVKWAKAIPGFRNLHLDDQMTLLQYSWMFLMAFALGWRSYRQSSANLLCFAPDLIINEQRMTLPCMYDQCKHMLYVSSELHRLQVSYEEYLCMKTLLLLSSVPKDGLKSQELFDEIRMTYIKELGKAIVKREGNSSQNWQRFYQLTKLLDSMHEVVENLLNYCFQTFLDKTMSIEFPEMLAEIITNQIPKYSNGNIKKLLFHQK
Attribute measured: IC50 (nM)

Some solved cases for reference:
>>> value_observed("Cc1noc(=O)c2ccc(NC(=O)C(O)(CC3CCCc4c(Br)cccc43)C(F)(F)F)cc12 (stereo in doubt; 23a)")
794
>>> value_observed("Cc1cccc2c1CCCC2CC(O)(C(=O)Nc1ccc2c(=O)onc(C)c2c1)C(F)(F)F (stereo in doubt; 19b)")
200
>>> value_observed("Cc1noc(=O)c2ccc(NC(=O)C(O)(CC3(C4CCC4)CCCc4ccccc43)C(F)(F)F)cc12 (stereo not drawn)")
166

[I] Cc1noc(=O)c2ccc(NC(=O)[C@](O)(C[C@@]3(C4CCCC4)CCCc4ccccc43)C(F)(F)F)cc12
[II] CCCC1(CC(O)(C(=O)Nc2ccc3c(=O)onc(C)c3c2)C(F)(F)F)CCCc2ccccc21 (stereo not drawn)
[III] CCC1(CC(O)(C(=O)Nc2ccc3c(=O)onc(C)c3c2)C(F)(F)F)CCCc2ccc([N+](=O)[O-])cc21 (stereo not drawn)
q: Ordering: ascending IC50. Reply format: the labels, ordered as requested.
a: II, I, III
(II: 25.1 nM, I: 53.7 nM, III: 316 nM)

[P] Cc1noc(=O)c2ccc(NC(=O)C(O)(CC3CCCc4c(F)cccc43)C(F)(F)F)cc12 (stereo not drawn)
[Q] Cc1noc(=O)c2ccc(NC(=O)C(O)(CC3(C4CCCCC4)CCCc4ccccc43)C(F)(F)F)cc12 (stereo not drawn)
q: Would you mind telling me which has the lower recorded IC50 between P and Q ? Answer with the label corresponding to your selection.
a: Q
(Q: 200 nM, P: 501 nM)
